# Tested on: Rattus norvegicus
# procedure.text: ACh released compared with baseline (100%) in rat striatum after peroral administration (0-2 h,10 mg/kg, 20% HPbetaCD) using microdialysis assay
# Assay type: functional
Task for the reader: assign each of the following compounds its reported Activity.
Your answer is read as %, so omit the unit and give the number.

// query Quick one: Activity of Cc1cccc(C(=O)N2CCC(N3CCC(Cc4ccc(S(=O)(=O)c5cccc(Cl)c5)cc4)CC3)CC2)c1N [SCH-211803] ?
// result 180

// query Quick one: Activity of CC(=C1CCN(C2CCN(C(=O)c3ccc(F)c4ccccc34)CC2)CC1)c1ccc([S+]([O-])C(C)C)cc1 (single isomer, unassigned; (-)) ?
// result 155

// query Quick one: Activity of CC(C)Sc1ccc(CC2CCN(C3CCN(C(=O)c4cccc5ccccc45)CC3)CC2)cc1 ?
// result 110
